- assay: Rat IV/PO pharmacokinetic study
- Type: in vivo, Han Wistar rats
- recorded conditions: male, Han Wistar, prodrug Example 4 in blood, intravenous infusion of Example 4, 1 mg/kg, mean ± SD, N=3
quantity: MRT (min)
Number only, in min; omit the unit.

Tell me measured MRT for Cc1c(N2CN(c3ccc(=O)n(COP(=O)(O)O)c3C)C(=O)c3cc(F)c(Cl)cc32)ccc(F)c1F [Example 4] please.
6

* * *

- assay: CAD kinetic solubility
- Assay type: physicochemical
- recorded conditions: phosphate buffered saline (PBS), aqueous buffer, PBS pH 7.4, 1 hour equilibration at room temperature, from DMSO stock, HPLC-CAD
Reported solubility at 1 h by item:
Number only, in µg/mL; omit the unit.

Please review the following examples before continuing.
- compound string: "Cc1cc(OC(F)(F)F)ccc1N1CN(c2cc(C)c(=O)[nH]c2C)C(=O)c2cc(C(F)(F)F)cnc21"
  quantity: "solubility at 1 h"
  value observed: 56
- compound string: "Cc1cc(F)ccc1N1CN(c2ccc(=O)[nH]c2C)C(=O)c2cc(C(F)(F)F)c(F)cc21"
  quantity: "solubility at 1 h"
  value observed: 32
- compound string: "Cc1c(N2CN(c3ccc(=O)n(COP(=O)(O)O)c3C)C(=O)c3cc(C(F)(F)F)ncc32)ccc(F)c1F"
  quantity: "solubility at 1 h"
  value observed: 224
- compound string: "Cc1[nH]c(=O)ccc1N1CN(c2ccc(F)c(F)c2C)c2cc(Cl)c(F)cc2C1=O"
  quantity: "solubility at 1 h"
  value observed: 44

Continue with the compound presented below.
Tell me measured solubility at 1 h for Cc1cc(F)ccc1N1CN(c2ccc(=O)n(COP(=O)(O)O)c2C)C(=O)c2cc(F)c(Cl)cc21 please.
135

* * *

- assay: Rat IV/PO pharmacokinetic study
- Format: in vivo, Han Wistar rats
- recorded conditions: male, Han Wistar, prodrug Example 4 in blood, intravenous infusion of Example 4, 1 mg/kg, mean ± SD, N=3
quantity: half-life
# number then unit; no other words

Tell me measured half-life for Cc1c(N2CN(c3ccc(=O)n(COP(=O)(O)O)c3C)C(=O)c3cc(F)c(Cl)cc32)ccc(F)c1F please.
40.2 min

* * *

- assay: Rat IV/PO pharmacokinetic study
- Assay type: in vivo, Han Wistar rats
- recorded conditions: male, Han Wistar, systemic blood clearance of prodrug Example 4, intravenous infusion, 1 mg/kg, mean ± SD, N=3
quantity: clearance (mL/min/kg)
Number only, in mL/min/kg; omit the unit.

Tell me measured clearance for Cc1c(N2CN(c3ccc(=O)n(COP(=O)(O)O)c3C)C(=O)c3cc(F)c(Cl)cc32)ccc(F)c1F [Example 4] please.
110

* * *

- test system: human Nav1.8 (Homo sapiens)
- Sequence (Q9Y5Y9 whole entry): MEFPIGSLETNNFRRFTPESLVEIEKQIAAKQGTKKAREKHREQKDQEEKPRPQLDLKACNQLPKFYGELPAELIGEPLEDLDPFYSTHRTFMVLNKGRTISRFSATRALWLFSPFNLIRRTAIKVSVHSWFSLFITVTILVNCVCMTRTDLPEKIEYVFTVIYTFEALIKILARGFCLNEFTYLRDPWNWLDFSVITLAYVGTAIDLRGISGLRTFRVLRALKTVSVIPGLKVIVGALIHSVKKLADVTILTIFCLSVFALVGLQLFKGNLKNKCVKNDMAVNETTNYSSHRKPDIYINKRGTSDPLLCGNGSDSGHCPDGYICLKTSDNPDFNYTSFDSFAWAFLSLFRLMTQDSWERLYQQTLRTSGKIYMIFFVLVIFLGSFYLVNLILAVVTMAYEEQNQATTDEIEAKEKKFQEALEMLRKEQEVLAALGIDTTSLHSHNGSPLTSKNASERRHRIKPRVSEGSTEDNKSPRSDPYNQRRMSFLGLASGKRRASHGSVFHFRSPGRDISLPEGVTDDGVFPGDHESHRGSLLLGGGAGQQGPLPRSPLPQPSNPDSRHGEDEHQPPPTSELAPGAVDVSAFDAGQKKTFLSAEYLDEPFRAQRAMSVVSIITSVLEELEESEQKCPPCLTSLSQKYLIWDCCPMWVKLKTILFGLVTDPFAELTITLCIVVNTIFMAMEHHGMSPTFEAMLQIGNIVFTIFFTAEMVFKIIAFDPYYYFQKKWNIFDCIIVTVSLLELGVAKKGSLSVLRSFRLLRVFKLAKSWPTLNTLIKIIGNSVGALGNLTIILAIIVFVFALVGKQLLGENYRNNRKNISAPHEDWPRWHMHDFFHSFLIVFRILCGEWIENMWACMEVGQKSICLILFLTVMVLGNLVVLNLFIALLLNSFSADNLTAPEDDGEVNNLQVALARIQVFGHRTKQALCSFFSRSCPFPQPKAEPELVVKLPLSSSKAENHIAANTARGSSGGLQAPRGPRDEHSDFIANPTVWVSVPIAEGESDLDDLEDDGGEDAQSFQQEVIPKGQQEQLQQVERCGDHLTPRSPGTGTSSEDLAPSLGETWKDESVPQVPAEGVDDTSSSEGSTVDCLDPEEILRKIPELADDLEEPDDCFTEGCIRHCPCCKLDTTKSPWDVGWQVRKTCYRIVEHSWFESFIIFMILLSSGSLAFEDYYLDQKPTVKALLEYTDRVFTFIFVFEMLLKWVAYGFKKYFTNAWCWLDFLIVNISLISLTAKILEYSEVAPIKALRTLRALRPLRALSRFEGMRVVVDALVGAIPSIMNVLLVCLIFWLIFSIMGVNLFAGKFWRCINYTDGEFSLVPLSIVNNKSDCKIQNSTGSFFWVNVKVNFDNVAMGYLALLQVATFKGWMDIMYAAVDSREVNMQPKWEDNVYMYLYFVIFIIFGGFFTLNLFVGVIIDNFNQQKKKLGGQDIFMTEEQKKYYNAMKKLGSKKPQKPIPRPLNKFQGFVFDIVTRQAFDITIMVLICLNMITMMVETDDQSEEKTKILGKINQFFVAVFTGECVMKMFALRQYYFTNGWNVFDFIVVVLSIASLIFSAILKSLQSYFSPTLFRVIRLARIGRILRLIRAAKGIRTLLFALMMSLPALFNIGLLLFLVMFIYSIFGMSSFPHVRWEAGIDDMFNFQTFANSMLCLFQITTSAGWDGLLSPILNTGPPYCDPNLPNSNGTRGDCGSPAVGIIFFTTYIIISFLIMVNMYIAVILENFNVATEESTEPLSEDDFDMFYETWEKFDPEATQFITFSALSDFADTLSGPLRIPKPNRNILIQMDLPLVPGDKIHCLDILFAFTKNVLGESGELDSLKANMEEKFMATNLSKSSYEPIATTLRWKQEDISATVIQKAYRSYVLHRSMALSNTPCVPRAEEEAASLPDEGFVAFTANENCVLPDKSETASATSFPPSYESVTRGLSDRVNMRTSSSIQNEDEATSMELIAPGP
- assay: Nav1.8 inhibitory activity, QPatch 48 HTX electrophysiology in HEK293-Nav1.8 cells
- Assay type: cell-based
- Set-up: expressed in transfected cells; host or cells: HEK293
- recorded conditions: half inactivation state voltage protocol (V1/2), HEK293 cells expressing human Nav1.8, read-out: [Nav1.8] pIC50 (converted)
quantity: IC50

- molecule: "Cc1cc(F)ccc1N1CN(c2ccc(=O)[nH]c2C)C(=O)c2cc(C(F)(F)F)c(F)cc21 [Example 1A]"
  IC50: "0.01 µM"

Tell me measured IC50 for Cc1cc(F)ccc1N1CN(c2ccc(=O)n(COP(=O)(O)O)c2C)C(=O)c2cc(C(F)(F)F)c(F)cc21 [Example 1] please.
0.0316 µM

Tell me measured IC50 for Cc1cc(F)ccc1N1CN(c2ccc(=O)[nH]c2C)C(=O)c2cc(F)c(Cl)cc21 [Example 5A] please.
0.00501 µM

Tell me measured IC50 for Cc1c(N2CN(c3ccc(=O)n(COP(=O)(O)O)c3C)C(=O)c3cc(F)c(Cl)cc32)ccc(F)c1F [Example 4] please.
0.0316 µM
